- TARGET OF ASSAY: TASK1 (human) (Homo sapiens)
- Sequence (O14649 whole entry): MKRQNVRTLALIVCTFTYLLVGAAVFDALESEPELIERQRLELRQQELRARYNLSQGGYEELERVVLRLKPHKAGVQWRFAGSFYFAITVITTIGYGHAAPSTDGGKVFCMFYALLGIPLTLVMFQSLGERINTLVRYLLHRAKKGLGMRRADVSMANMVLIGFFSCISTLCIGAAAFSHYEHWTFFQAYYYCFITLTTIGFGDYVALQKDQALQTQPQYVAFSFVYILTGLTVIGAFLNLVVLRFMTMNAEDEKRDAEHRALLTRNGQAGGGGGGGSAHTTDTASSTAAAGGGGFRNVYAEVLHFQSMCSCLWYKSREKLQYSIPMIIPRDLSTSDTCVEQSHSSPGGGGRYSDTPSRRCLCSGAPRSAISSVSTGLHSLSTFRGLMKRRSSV
- EXPERIMENTAL PROTOCOL: Activity on the TASK-1 channel in Xenopus oocytes (two-microelectrode voltage clamp), human channel
- Format: cell-based
- Parameters: expressed in transfected cells; host or cells: Xenopus laevis oocytes injected with in vitro synthesized RNA
- TEST CONDITIONS: human TASK-1 expressed in Xenopus oocytes, voltage jumps to 40 mV, pH 7.4, room temperature; read-out: IC50 (μmol) TASK1 (human)
ENDPOINT LABEL: IC50 (µM)

[A] CCCCS(=O)(=O)Nc1ccccc1C(=O)N[C@H](CC)c1ccc(OC)nc1 [Example 1 (R-enantiomer)]
[B] COc1ccc(CC(=O)NCc2ccccc2-c2ccccc2C(=O)NCCc2cccnc2)cc1
Input: Between A and B , which one shows the smaller IC50 number? API: response body contains the label of the selected item.
Output: A
(A: 0.1 µM, B: 0.57 µM)

* * *

- TARGET OF ASSAY: TASK1 (mouse) (Mus musculus, UniProt O35111)
- Sequence (O35111 whole entry): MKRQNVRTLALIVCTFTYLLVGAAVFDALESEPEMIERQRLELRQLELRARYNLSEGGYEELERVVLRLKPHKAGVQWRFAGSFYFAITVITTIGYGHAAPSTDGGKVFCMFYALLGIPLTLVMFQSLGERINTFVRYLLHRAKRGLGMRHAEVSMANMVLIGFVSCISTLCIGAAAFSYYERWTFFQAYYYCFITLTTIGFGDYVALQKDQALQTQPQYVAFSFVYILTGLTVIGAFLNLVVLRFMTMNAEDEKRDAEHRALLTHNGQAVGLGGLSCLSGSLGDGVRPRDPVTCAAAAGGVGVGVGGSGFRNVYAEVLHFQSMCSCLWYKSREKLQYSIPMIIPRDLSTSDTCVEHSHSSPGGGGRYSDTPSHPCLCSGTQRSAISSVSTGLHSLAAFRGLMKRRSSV
- EXPERIMENTAL PROTOCOL: Activity on the TASK-1 channel in Xenopus oocytes (two-microelectrode voltage clamp), mouse channel
- TEST CONDITIONS: mouse TASK-1 expressed in Xenopus oocytes, voltage jumps to 40 mV, pH 7.4, room temperature; read-out: IC50 (μmol) TASK1 (mouse)
ENDPOINT LABEL: IC50 (nM)

[P] COc1ccc(CCC(=O)NCc2ccccc2-c2cc(C(=O)NCCC(C)C)ccc2C)cc1 [Example 16]
[Q] COc1ccc(CC(=O)NCc2ccccc2-c2ccsc2C(=O)NCc2ccc(F)cc2F)cc1 [Example 8]
Input: Name the one with the greater IC50 value, either P or Q as given. // respond with label for picked entry
Output: P

[I] O=C(NCc1ccccc1-c1ncccc1C(=O)NCc1ccc(F)cc1F)OCc1ccccc1 [Example 14]
[II] CC(C)CCNC(=O)c1cccc(-c2ccncc2CNC(=O)OCc2ccccc2)c1 [Example 15]
Input: Sorting by IC50 in descending order, would I or II appear first? Write down the label attached to your selection.
Output: I

[a] COc1ccc(CC(=O)NCc2ccccc2-c2sccc2C(=O)NCc2ccc(F)cc2F)cc1 [Example 11]
[b] CC[C@H](NC(=O)c1cc(OC)ccc1NS(=O)(=O)c1ccc(OC)cc1)c1ccccc1 [Example 4]
[c] COc1ccc(CC(=O)NCc2ccccc2-c2cc(Cl)ccc2C(=O)NCc2ccc(F)cc2F)cc1 [Example 6]
Input: Please produce an ascending ranking of these compounds based on IC50. Return the labels ranked in the requested order, please.
Output: a, b, c

[A] C[C@H](OC(=O)NCc1ccccc1-c1ccccc1C(=O)NC[C@@H](C)O)c1ccccc1 [Example 5]
[B] CCCCS(=O)(=O)Nc1ccccc1C(=O)N[C@@H](CC)c1ccc(OC)nc1 [Example 1 (S-enantiomer)]
[C] COc1ccc(CC(=O)NCc2ccccc2-c2ccccc2C(=O)NCCc2cccnc2)cc1 [Example 2]
[D] C[C@H](OC(=O)NCc1ccccc1-c1cccnc1C(=O)NCCc1ccccn1)c1ccccc1 [Example 12]
[E] CCCCS(=O)(=O)Nc1ccccc1C(=O)N[C@H](CC)c1ccc(OC)nc1 [Example 1 (R-enantiomer)]
Input: List by increasing IC50. # format: label list in the order the request specifies
Output: E, C, B, A, D

[a] CN(CCc1ccccn1)C(=O)c1ccccc1-c1ccccc1CNC(=O)OCc1ccccc1 [Example 7]
[b] COc1ccc(CC(=O)NCc2ccccc2-c2ccc(C(=O)NCc3ccc(F)cc3F)o2)cc1 [Example 9]
Input: Between the entries labeled a and b , whose measured IC50 is lower? Returns: label corresponding to the selected item.
Output: a
